- assay-target: human FSH receptor (Homo sapiens)
- Construct: expressed in transfected cells; host or cells: CHO cells (hFSHR clone 16)
- test-name: HTRF assay for measuring cAMP in cells (FSH antagonism)
- Assay type: cell-based
- condition-summary: Table 1; hFSHR clone 16 cells (CHO cells stably transfected with the human FSH receptor), in the presence of 1e-9 mol/l hFSH, 37° C. for 2 h; read-out: IC50 (FSH-antagonistic effect in the HTRF assay)
measured-endpoint: IC50 (nM)
Numbers only, in nM.

Here is how some compounds turned out for IC50.
# compound, u, value-reported
data = [
    ("Cc1cc(C)cc(-c2cc3c(c(C(=O)N[C@@H](CO)Cc4c[nH]c5ccccc45)c2)OCC3)c1", "nM", 3000),
    ("CNC(=O)c1cc(F)cc(-c2cc3c(c(C(=O)NC(CO)Cc4c[nH]c5cccc(C)c45)c2)OCCCC3)c1 (stereo not shown)", "nM", 1500),
    ("CNC(=O)c1ccc(-c2cc3c(c(C(=O)N[C@@H](CO)Cc4c[nH]c5ccccc45)c2)OCC3)cc1", "nM", 2000),
]

Proceeding to the next compound to report its IC50.
*Q* GET /values?readout=IC50&item= CNC(=O)c1ccc(C#Cc2cc3c(c(C(=O)NC(CO)Cc4c[nH]c5cc(F)ccc45)c2)OCCCC3)cc1 (stereo not shown)
*A* 50

---

- assay-target: human FSH receptor (Homo sapiens, UniProt P23945)
- Construct: expressed in transfected cells; host or cells: CHO cells (hFSHR clone 16)
- Sequence (P23945 18-695): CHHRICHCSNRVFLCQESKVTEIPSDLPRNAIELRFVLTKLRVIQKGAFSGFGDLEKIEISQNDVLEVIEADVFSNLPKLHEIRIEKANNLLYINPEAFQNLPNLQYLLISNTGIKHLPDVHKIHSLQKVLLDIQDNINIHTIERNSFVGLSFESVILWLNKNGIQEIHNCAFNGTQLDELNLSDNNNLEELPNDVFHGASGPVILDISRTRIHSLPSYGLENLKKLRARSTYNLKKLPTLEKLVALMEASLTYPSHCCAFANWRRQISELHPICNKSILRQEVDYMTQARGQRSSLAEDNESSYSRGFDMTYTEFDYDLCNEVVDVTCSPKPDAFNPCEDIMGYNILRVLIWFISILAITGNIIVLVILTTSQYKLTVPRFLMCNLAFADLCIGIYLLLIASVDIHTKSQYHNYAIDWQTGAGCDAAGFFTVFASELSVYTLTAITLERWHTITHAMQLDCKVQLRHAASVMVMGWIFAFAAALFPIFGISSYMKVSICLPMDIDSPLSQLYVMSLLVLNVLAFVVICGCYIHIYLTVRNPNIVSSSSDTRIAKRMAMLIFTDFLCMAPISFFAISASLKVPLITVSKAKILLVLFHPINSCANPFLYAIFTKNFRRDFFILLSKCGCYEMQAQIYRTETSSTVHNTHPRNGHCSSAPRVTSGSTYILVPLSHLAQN
- test-name: HTRF assay for measuring cAMP in cells (FSH antagonism)
- Format: cell-based
- condition-summary: Table 2; hFSHR clone 16 cells (CHO cells stably transfected with the human FSH receptor), in the presence of 1e-9 mol/l hFSH, 37° C. for 2 h; read-out: IC50 (FSH-antagonistic effect in the HTRF assay)
measured-endpoint: IC50 (nM)
Give bare numbers, in nM.

In the examples that follow, each entry is paired with its recorded IC50.
# compound, assay-target, u, value-reported
rows = [
    ("COc1ccc(-c2cc3c(c(C(=O)N[C@@H](CO)Cc4c[nH]c5ccccc45)c2)OCCO3)cc1F", "human FSH receptor (Homo sapiens, UniProt P23945)", "nM", 950),
    ("CNC(=O)c1ccc(-c2cc3c(c(C(=O)NC(CO)Cc4c[nH]c5ccc(F)cc45)c2)OC(C)(C)C=C3)cc1Cl (centres unmarked)", "human FSH receptor (Homo sapiens, UniProt P23945)", "nM", 20),
    ("N#Cc1cc(-c2cc3c(c(C(=O)N[C@@H](CO)Cc4c[nH]c5ccccc45)c2)OCCO3)ccc1F", "human FSH receptor (Homo sapiens, UniProt P23945)", "nM", 1000),
    ("CNC(=O)c1ccc(-c2cc3c(c(C(=O)N[C@@H](CO)Cc4c[nH]c5ccccc45)c2)OCCO3)cc1", "human FSH receptor (Homo sapiens, UniProt P23945)", "nM", 200),
    ("Nc1cccc(-c2cc3c(c(C(=O)N[C@@H](CO)Cc4c[nH]c5ccccc45)c2)OCCO3)c1", "human FSH receptor (Homo sapiens, UniProt P23945)", "nM", 800),
    ("COC(=O)c1ccc(-c2cc3c(c(C(=O)N[C@@H](CO)Cc4c[nH]c5ccccc45)c2)OCCO3)cc1OC", "human FSH receptor (Homo sapiens, UniProt P23945)", "nM", 130),
]

Hi! Can you tell me IC50 for each of these compounds?
1. O=C(N[C@@H](CO)Cc1c[nH]c2ccccc12)c1cc(-c2ccc(-c3ccccc3)cc2)cc2c1OCCO2
2. CNC(=O)c1ccc(-c2cc3c(c(C(=O)NC(CO)Cc4c[nH]c5c(F)cc(F)cc45)c2)OC(C)(C)CC3)cc1Cl (centres unmarked)

*A*
1. 500
2. 70
